Values from PubChem BioAssay AID2060600

# Tested on: 996289-038-R-J1-PDC complex spheroid viability;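 note: spheroids exposed to the agents for 7 days before readout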
# assayName: Anticancer human tumor 996289-038-R-J1-PDC patient-derived colon adenocarcinoma cell line growth inhibition [CLK]
# details: curve of first compound; second compound 10 µM
pIC50: −log10 of the molar value.
measureName: pIC50

INSERT INTO assay_data (compound, assaytarget, endpointresult) VALUES
  ('CCCS(=O)(=O)Nc1ccc(F)c(C(=O)c2c[nH]c3ncc(-c4ccc(Cl)cc4)cc23)c1F + CN1CCN(c2cc(C(=O)Nc3cc4cc(-c5cnn(C)c5)ccc4cn3)ccn2)CC1', '996289-038-R-J1-PDC complex spheroid viability', '> 7.50'),
  ('C=CC(=O)N1CCN(c2nc(=O)n(-c3c(C)ccnc3C(C)C)c3nc(-c4c(O)cccc4F)c(F)cc23)C(C)C1 (stereo not drawn) + CN1CCN(c2cc(C(=O)Nc3cc4cc(-c5cnn(C)c5)ccc4cn3)ccn2)CC1', '996289-038-R-J1-PDC complex spheroid viability', '> 7.50'),
  ('COc1c(OCCCN2CCOCC2)ccc2c3n(c(=NC(=O)c4cnc(N)nc4)nc12)CCN3 + CNC(=O)c1ccc(Nc2nc(OC3CCCC3)c3c(-c4ccc5nc(C)oc5c4)c[nH]c3n2)c(OC)c1', '996289-038-R-J1-PDC complex spheroid viability', '> 8.50'),
  ('CC(=O)O[C@H]1C(=O)[C@@]2(C)[C@H]([C@H](OC(=O)c3ccccc3)[C@]3(O)C[C@H](OC(=O)[C@H](O)[C@@H](NC(=O)c4ccccc4)c4ccccc4)C(C)=C1C3(C)C)[C@]1(OC(C)=O)CO[C@@H]1C[C@@H]2O + CNC(=O)c1ccc(Nc2nc(OC3CCCC3)c3c(-c4ccc5nc(C)oc5c4)c[nH]c3n2)c(OC)c1', '996289-038-R-J1-PDC complex spheroid viability', '< 5.00'),
  ('O=C(c1cc(Cc2n[nH]c(=O)c3ccccc23)ccc1F)N1CCN(C(=O)C2CC2)CC1 + CNC(=O)c1ccc(Nc2nc(OC3CCCC3)c3c(-c4ccc5nc(C)oc5c4)c[nH]c3n2)c(OC)c1', '996289-038-R-J1-PDC complex spheroid viability', '< 5.00'),
  ('O=C(c1cc(Cc2n[nH]c(=O)c3ccccc23)ccc1F)N1CCN(C(=O)C2CC2)CC1 + CN1CCN(c2cc(C(=O)Nc3cc4cc(-c5cnn(C)c5)ccc4cn3)ccn2)CC1', '996289-038-R-J1-PDC complex spheroid viability', '> 7.50'),
  ('CC(CO)NC(=O)c1cc(-c2ccc(Cl)cc2)nn(-c2cnn(C)c2)c1=O (stereo not drawn) + CN1CCN(c2cc(C(=O)Nc3cc4cc(-c5cnn(C)c5)ccc4cn3)ccn2)CC1', '996289-038-R-J1-PDC complex spheroid viability', '> 7.50'),
  ('Cn1ncnc1[C@H]1c2n[nH]c(=O)c3cc(F)cc(c23)N[C@@H]1c1ccc(F)cc1 + CNC(=O)c1ccc(Nc2nc(OC3CCCC3)c3c(-c4ccc5nc(C)oc5c4)c[nH]c3n2)c(OC)c1', '996289-038-R-J1-PDC complex spheroid viability', '< 7.00'),
  ('CCN1CCN(Cc2ccc(Nc3ncc(F)c(-c4cc(F)c5nc(C)n(C(C)C)c5c4)n3)nc2)CC1 + CN1CCN(c2cc(C(=O)Nc3cc4cc(-c5cnn(C)c5)ccc4cn3)ccn2)CC1', '996289-038-R-J1-PDC complex spheroid viability', '> 8.50'),
  ('NC(=O)C(=Cn1cnc(-c2cc(C(F)(F)F)cc(C(F)(F)F)c2)n1)c1cncnc1 + CNC(=O)c1ccc(Nc2nc(OC3CCCC3)c3c(-c4ccc5nc(C)oc5c4)c[nH]c3n2)c(OC)c1', '996289-038-R-J1-PDC complex spheroid viability', '> 8.02'),
  ('CC1COCCN1c1cc(C2(S(C)(=N)=O)CC2)nc(-c2ccnc3[nH]ccc23)n1 (stereo not drawn) + CNC(=O)c1ccc(Nc2nc(OC3CCCC3)c3c(-c4ccc5nc(C)oc5c4)c[nH]c3n2)c(OC)c1', '996289-038-R-J1-PDC complex spheroid viability', 5.67),
  ('CCc1c2c(nc3ccc(O)cc13)-c1cc3c(c(=O)n1C2)COC(=O)[C@]3(O)CC + CNC(=O)c1ccc(Nc2nc(OC3CCCC3)c3c(-c4ccc5nc(C)oc5c4)c[nH]c3n2)c(OC)c1', '996289-038-R-J1-PDC complex spheroid viability', 8.07),
  ('O=c1[nH]cc(F)c(=O)[nH]1 + CNC(=O)c1ccc(Nc2nc(OC3CCCC3)c3c(-c4ccc5nc(C)oc5c4)c[nH]c3n2)c(OC)c1', '996289-038-R-J1-PDC complex spheroid viability', 5.80),
  ('CC1COCCN1c1cc(C2(S(C)(=N)=O)CC2)nc(-c2ccnc3[nH]ccc23)n1 (stereo not drawn) + CN1CCN(c2cc(C(=O)Nc3cc4cc(-c5cnn(C)c5)ccc4cn3)ccn2)CC1', '996289-038-R-J1-PDC complex spheroid viability', '> 7.50'),
  ('C#Cc1c(F)ccc2cc(O)cc(-c3ncc4c(N5CC6CCC(C5)N6)nc(OCC56CCCN5CC(F)C6)nc4c3F)c12 (stereo not drawn) + CN1CCN(c2cc(C(=O)Nc3cc4cc(-c5cnn(C)c5)ccc4cn3)ccn2)CC1', '996289-038-R-J1-PDC complex spheroid viability', '> 7.50'),
  ('CC(C)CC(NC(=O)C(Cc1ccccc1)NC(=O)c1cnccn1)B(O)O (stereo not drawn) + CN1CCN(c2cc(C(=O)Nc3cc4cc(-c5cnn(C)c5)ccc4cn3)ccn2)CC1', '996289-038-R-J1-PDC complex spheroid viability', '> 9.02'),
  ('COc1c(OCCCN2CCOCC2)ccc2c3n(c(=NC(=O)c4cnc(N)nc4)nc12)CCN3 + CN1CCN(c2cc(C(=O)Nc3cc4cc(-c5cnn(C)c5)ccc4cn3)ccn2)CC1', '996289-038-R-J1-PDC complex spheroid viability', '> 8.50'),
  ('O=c1[nH]cc(F)c(=O)[nH]1 + CN1CCN(c2cc(C(=O)Nc3cc4cc(-c5cnn(C)c5)ccc4cn3)ccn2)CC1', '996289-038-R-J1-PDC complex spheroid viability', '> 7.50');
